# system tested: RORγt (Homo sapiens, UniProt P51449)
# assay protocol: Gal4 ligand binding assay (RORγt Gal fusion reporter assay)
# run conditions: inverse agonists, luciferase reporter, 24h
pIC50: −log10 of the molar value.
readout name: pIC50

Query for RORγt (Homo sapiens, UniProt P51449): what pIC50 does the record show for `CC(C)c1cc(CN2CC3CCC(C2)N3S(C)(=O)=O)ccc1-c1ccc(C(O)(C(F)(F)F)C(F)(F)F)cc1Cl` ? 6.60 to 7.30

Check `CCc1c(-c2ccc(C(O)(C(F)(F)F)C(F)(F)F)cc2)cc(F)c(CN2CC3CCC(C2)N3S(C)(=O)=O)c1F` too. > 7.30

Check `OC(c1ccc(-c2ccc(CN3CC4CCC(C3)N4Cc3ccncc3)cc2Br)cc1)(C(F)(F)F)C(F)(F)F` too. > 7.30

Check `CCc1cc(CN2CC3CCC(C2)N3S(C)(=O)=O)c(F)cc1-c1ccc(C(O)(C(F)(F)F)C(F)(F)F)cc1Cl` too. > 7.30

Check `CCc1c(F)c(CN2CC3CCC(C2)N3S(C)(=O)=O)cc(F)c1-c1ccc(C(O)(C(F)(F)F)C(F)(F)F)cc1C` too. > 7.30

Check `CCc1cc(CN2CC3CCC(C2)N3S(C)(=O)=O)ccc1-c1ccc(C(O)(C(F)(F)F)C(F)(F)F)cc1CC` too. > 7.30

Check `CCc1cc(CN2CC3CCC(C2)N3S(C)(=O)=O)ncc1-c1ccc(C(O)(C(F)(F)F)C(F)(F)F)cc1C` too. 6.60 to 7.30

Check `CCc1c(F)c(CN2CC3CCC(C2)N3S(C)(=O)=O)cc(F)c1-c1ccc(C(O)(C(F)(F)F)C(F)(F)F)cc1Cl` too. > 7.30

Check CCc1cc(CN2CC3CC2CN3S(C)(=O)=O)ccc1-c1ccc(C(O)(C(F)(F)F)C(F)(F)F)cc1 (stereo not shown) too. > 7.30

Check `CCc1c(-c2ccc(C(O)(C(F)(F)F)C(F)(F)F)cc2C)cc(F)c(CN2CC3CCC(C2)N3S(C)(=O)=O)c1F` too. > 7.30

Check `Cc1cc(C(O)(C(F)(F)F)C(F)(F)F)ccc1-c1ccc(CN2CC3CCC(C2)N3S(C)(=O)=O)cc1C(C)C` too. 6.60 to 7.30

Check `CCc1cc(CN2CC3CCC(C2)N3S(C)(=O)=O)c(F)c(F)c1-c1ccc(C(O)(C(F)(F)F)C(F)(F)F)cc1C` too. > 7.30

Check `CCc1cc(CN2CC3CCC(C2)N3S(C)(=O)=O)cc(F)c1-c1ccc(C(O)(C(F)(F)F)C(F)(F)F)cc1` too. > 7.30

Check `COCCC(=O)N1C2CCC1CN(Cc1ccc(-c3ccc(C(O)(C(F)(F)F)C(F)(F)F)cc3)c(C)c1)C2` too. < 6.60

Check `Cc1cc(CN2CC3CCC(C2)N3S(=O)(=O)CC(F)(F)F)ccc1-c1ccc(C(O)(C(F)(F)F)C(F)(F)F)cc1` too. < 6.60

====

This listing pairs molecules with measured pIC50.
# system tested: RORγt (Homo sapiens)
# Sequence (P51449 269-508 limits assumed): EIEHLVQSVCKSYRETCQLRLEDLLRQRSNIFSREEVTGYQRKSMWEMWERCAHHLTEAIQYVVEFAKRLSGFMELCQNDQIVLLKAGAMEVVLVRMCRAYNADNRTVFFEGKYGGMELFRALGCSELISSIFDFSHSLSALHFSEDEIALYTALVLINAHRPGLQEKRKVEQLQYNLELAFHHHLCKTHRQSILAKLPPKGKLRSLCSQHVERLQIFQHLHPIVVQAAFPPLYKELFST
# assay protocol: Gal4 ligand binding assay (RORγt Gal fusion reporter assay)
# run conditions: inverse agonists, luciferase reporter, 24h
pIC50: −log10 of the molar value.

Solved cases below.
Query for RORγt (Homo sapiens): what pIC50 does the record show for `Cc1cc(CN2CC3CCC(C2)N3S(C)(=O)=O)ccc1-c1ccc(C(O)(C(F)(F)F)C(F)(F)F)cc1` ? 6.60 to 7.30

Check `Cc1cc(CN2CC3CCC(C2)N3Cc2ccnnc2)ccc1-c1ccc(C(O)(C(F)(F)F)C(F)(F)F)cc1` too. > 7.30

Check Cc1cc(CN2CC3CCC2CN3Cc2ccncc2)ccc1-c1ccc(C(O)(C(F)(F)F)C(F)(F)F)cc1 (stereo not shown) too. 6.60 to 7.30

Shift focus to the following entry.
Query for RORγt (Homo sapiens): what pIC50 does the record show for `Cc1cc(CN2C3CCC2CN(Cc2ccc(-c4ccc(C(O)(C(F)(F)F)C(F)(F)F)cc4)c(C)c2)C3)ccn1` ? < 6.60
